Origin of values: PubChem BioAssay (NCI)

test system: TK-10 renal; test: NCI-60 one-dose screen, 48 h; conditions: 100 µM
This is part of a sample that, as a whole, favours compounds with a hit. Of some 83,000 tested, about 20% had one in any assay. The source made the active and inactive calls. The calls were made as follows: active = growth percent below 10; inactive = the rest.
Outcome codes: active, inactive

{"compound": "COc1ccc(Cl)cc1C(=O)NCCc1ccc(S(=O)(=O)NC(=O)NC2CCCCC2)cc1", "label-class": "inactive"}
{"compound": "Cc1[nH]c(-c2nc3ccccc3[nH]2)c(C)c1C(=O)NC(C)C1CCCCC1 (centres undefined)", "label-class": "active"}
{"compound": "CCc1ccccc1-n1c(N)c(C#N)c(-c2ccc(OC)c(OC)c2)c(C#N)c1=O", "label-class": "active"}
{"compound": "CC#C[C@]1(O)CC[C@H]2[C@@H]3CCC4=CC(=O)CCC4=C3[C@@H](c3ccc4c(c3)OCO4)C[C@@]21C", "label-class": "active"}
